Ref: patent US20250027068

Kindly supply the reported Enzyme Activity Endpoint Assay (purified): Fab′2 values for the records listed here.
biological target: pooled human IgG (human IgG1,2,3 and 4)
Numbers only, in ng/µL.

Solved entries:
{"protein": "PRT-340 (protein) MTITSVWTKGVTPPTPEDFRENNEDVLHAPYLANQGWYDITKAFDGKDNLLCGAATAGNMLHWWFDQNKEEIERYLKKHPEKQKIIFNNQELFDVKAAIDTKDSQTNSKLFDYFRDKAFPNLSARQLGVMPDLVLDMFINGYYLNLGKTQSTDVNRPYQDKDKRGGIFDAVFTRGDQTTLLTARHDLKNKGLNEISDLIKQELTEGKALALSHTYANVSINHVINLWGADFDAEGNLEAIYVTDSDANASIGMKKYFVGRNAHGKVAISAKKIEGDNIGAQVLGLFTLSTGQDQWQKLS", "reported": 692}
{"protein": "PRT-354 (protein) MSQTEDSESLQRLRDIEDFQAEKKMQNVVYTKWLDGVDVKDHDFRKIVDGNEAYYATPLLNGRGFYDINKDFNRDSDKCAAAVAANMFHYWLDINRDNVDRFLRQNPEKHGIIELPDGQLKLSDFLNTYESDHGYRDKSKLFDFISENFNGPVWTDKLLDNYINGYAYNYKYGRTIEDPTKNTSKINFFKEVFNEKILTNNHSIRNQNELSVLLSEALYTGKAIGLSYGPAGLRHSLGHIISVWGADLDADGNVVAIYVTDSDDKKLTIGDERVGLKRYKISTDDENRLRLTAYEETHNTGGQIRGLWTLDTGKYAWADYFDKTEQTGTDQAEQ", "reported": 618}
{"protein": "PRT-339 (protein) MTITSVWTKGVTPPTPEDFRENNEDVLHAPYLANQGWYDITKAFDGKDNLLCGAATAGNMLHWWFDQNKEEIERYLKKHPEKQKIIFGNQELFDVKAAIDTKDSQTNSKLFDYFRDKAFPNLSARQLGVMPDLVLDMFINGYYLNLGKTQSTDVNRPYQDKDKRGGIFDAVFTRGDQTTLLTARHDLKNKGLNEISDLIKQELTEGKALALSHTYANVSINHVINLWGADFDAEGNLEAIYVTDSDANASIGMKKYFVGRNAHGKVAISAKKIEGDNIGAQVLGLFTLSTGQDQWQKLS", "reported": 721}

From here, focus on the item given below.
Which Enzyme Activity Endpoint Assay (purified): Fab′2 is reported for this protein? PRT-473 (protein) MVTSVWTKGVTPPTDFRKIVDGNIAYYHAPYKAGQGWYDITKTFNGKDDLLCGAATAGNMLHWWFDQNKEQIENYLKKHPEKQKINFNGEQMFDVKEAIDTKDSQLDSKLFEYFKEKAFPYLSTKHLGVFPDHVIDMFINGYRLSLTNHGPTPVKRGSKDPRGGIFDAVFTRGDQSKLLTNRHDFKEKTLKEISDLIKQELTEGKALGISHTYANVRINHVINLWGADFDAEGNLEAIYVTDSDSNASIGMKKYFVGVNSNGKVAISAKEIEEDNIGAQVLGLFTLSTGQDIWNQTNLEHHHHHH
1340
